Across several publications, the following Ki results were reported for UniProt Q9ULX7.
Sequence (Q9ULX7 whole entry): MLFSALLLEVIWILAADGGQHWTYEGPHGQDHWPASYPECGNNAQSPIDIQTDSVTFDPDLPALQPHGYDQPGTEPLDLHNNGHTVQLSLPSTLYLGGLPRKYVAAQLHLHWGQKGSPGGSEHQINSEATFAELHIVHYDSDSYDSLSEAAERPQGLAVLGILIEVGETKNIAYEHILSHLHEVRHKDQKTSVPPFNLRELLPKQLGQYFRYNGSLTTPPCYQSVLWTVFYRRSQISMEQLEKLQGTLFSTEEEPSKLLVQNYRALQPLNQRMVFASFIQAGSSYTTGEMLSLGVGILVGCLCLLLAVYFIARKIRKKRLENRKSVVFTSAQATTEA
Write the number in nM without appending the unit.

Observe how each entry below is paired with its result.
CHEMICAL STRING | Ki / nM
O=C(NCCNCCCNCCNC(=O)C(F)(F)F)C(F)(F)F | 125000
COC(=O)[C@H](C)NS(=O)(=O)NC(=O)OC(C)(C)C | 5380
CCCN(CCC)S(N)(=O)=O | 7100

## Input Quote Ki reported for Oc1ccc(/C=C/c2cc(O)cc(O)c2)cc1 please.
## Output 830

## Input Fill in Ki for record CCOC(=O)c1cc2cc(CO)ccc2oc1=O
## Output 4600

## Input Give reported Ki value for CC(=O)OC[C@H]1O[C@@H](n2cc(-c3ccc(S(N)(=O)=O)cc3)nn2)[C@H](OC(C)=O)[C@@H](OC(C)=O)[C@@H]1OC(C)=O
## Output 104

## Input Please supply the value of reported Ki for the item COC(=O)CCNS(=O)(=O)NCc1ccc(F)cc1
## Output 22.7

## Input Please look at this compound and report its Ki: COC(=O)CCNS(=O)(=O)NCC(C)C
## Output 6.3

## Input Retrieve Ki measured for CC(=O)OC[C@H]1O[C@@H](NC(=S)Nc2ccc(S(N)(=O)=O)cc2)[C@H](OC(C)=O)[C@@H](OC(C)=O)[C@@H]1OC(C)=O and print it.
## Output 8.3

## Input For the compound NCCCCNCCCN , report Ki.
## Output 1000
